// reported PK selectivity index K i(protease)/Ki(plasmin) for each item listed
# target-or-system: plasma kallikrein (PK) (Homo sapiens, UniProt P03952)
# Sequence (P03952 391-638): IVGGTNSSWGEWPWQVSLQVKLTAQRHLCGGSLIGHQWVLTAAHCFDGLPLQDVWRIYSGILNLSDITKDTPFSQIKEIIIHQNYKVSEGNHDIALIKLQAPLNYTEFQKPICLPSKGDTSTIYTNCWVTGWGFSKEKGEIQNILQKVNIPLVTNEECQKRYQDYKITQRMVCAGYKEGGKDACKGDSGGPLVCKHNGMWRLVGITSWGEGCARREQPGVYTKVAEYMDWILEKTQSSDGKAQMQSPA
# Sequence (P03952 20-390): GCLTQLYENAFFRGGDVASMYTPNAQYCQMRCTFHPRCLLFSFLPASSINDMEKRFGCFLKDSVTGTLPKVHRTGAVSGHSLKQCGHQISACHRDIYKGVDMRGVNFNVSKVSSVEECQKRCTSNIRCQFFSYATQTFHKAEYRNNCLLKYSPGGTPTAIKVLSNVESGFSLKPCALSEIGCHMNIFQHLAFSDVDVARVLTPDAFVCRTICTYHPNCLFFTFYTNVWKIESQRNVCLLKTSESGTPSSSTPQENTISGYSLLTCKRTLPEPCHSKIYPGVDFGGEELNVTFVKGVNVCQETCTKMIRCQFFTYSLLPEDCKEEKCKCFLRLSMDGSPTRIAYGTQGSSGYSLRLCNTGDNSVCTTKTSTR
# measurement-description: Selectivity: inhibition of plasma kallikrein
# Type: biochemical
# recorded-conditions: in brackets

Study these solved cases before continuing.
>  <molecule>
Cc1ccc2cc1NC(=O)C(CCc1ccccc1)NC(=O)CCCNC(=O)Cc1ccc(cc1)NC(=O)C(NC(=O)C1CCC(CN)CC1)Cc1ccc-2cc1 (stereo not shown)

>  <experimental-value>
89

$$$$
>  <molecule>
Cc1ccc2cc1NC(=O)CNC(=O)CCCNC(=O)Cc1cccc(c1)NC(=O)[C@@H](NC(=O)[C@H]1CC[C@H](CN)CC1)Cc1ccc-2cc1

>  <experimental-value>
14

$$$$
>  <molecule>
CC(C)NC(=O)c1ccc2cc1NC(=O)CNC(=O)CCCNC(=O)Cc1ccc(cc1)NC(=O)C(NC(=O)C1CCC(CN)CC1)Cc1ccc-2cc1 (stereo not shown)

>  <experimental-value>
21

$$$$
>  <molecule>
Cc1ccc2cc1NC(=O)C(Cc1ccccc1)NC(=O)CCCNC(=O)Cc1ccc(cc1)NC(=O)C(NC(=O)C1CCC(CN)CC1)Cc1ccc-2cc1 (stereo not shown)

>  <experimental-value>
30

$$$$

For record Cc1ccc2cc1NC(=O)CNC(=O)CCNC(=O)c1ccc3cc(ccc3c1)NC(=O)[C@@H](NC(=O)[C@H]1CC[C@H](CN)CC1)Cc1ccc-2cc1 the listed PK selectivity index K i(protease)/Ki(plasmin) is 62

Reported PK selectivity index K i(protease)/Ki(plasmin) ( NC[C@H]1CC[C@H](C(=O)N[C@H]2Cc3ccc(cc3)-c3ccc(C(=O)Nc4ccccc4)c(c3)NC(=O)CNC(=O)CCCNC(=O)Cc3ccc(cc3)NC2=O)CC1 ) = 11

// recorded PK selectivity index K i(protease)/Ki(plasmin) for Cc1ccc2cc1NC(=O)CNC(=O)CCCNC(=O)Cc1ccc(cc1)NC(=O)[C@@H](NC(=O)[C@H]1CC[C@H](CN)CC1)Cc1ccc-2cc1 : 38

----------
# target-or-system: human plasmin (Homo sapiens, UniProt P00747)
# Construct: purchased Calbiochem
# Sequence (P00747 581-810): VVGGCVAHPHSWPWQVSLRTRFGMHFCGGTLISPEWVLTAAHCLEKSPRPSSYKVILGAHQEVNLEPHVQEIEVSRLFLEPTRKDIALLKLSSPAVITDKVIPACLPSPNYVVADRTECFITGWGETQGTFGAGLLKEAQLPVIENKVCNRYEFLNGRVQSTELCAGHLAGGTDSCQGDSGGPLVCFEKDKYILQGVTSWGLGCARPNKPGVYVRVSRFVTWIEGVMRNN
# Sequence (P00747 97-580): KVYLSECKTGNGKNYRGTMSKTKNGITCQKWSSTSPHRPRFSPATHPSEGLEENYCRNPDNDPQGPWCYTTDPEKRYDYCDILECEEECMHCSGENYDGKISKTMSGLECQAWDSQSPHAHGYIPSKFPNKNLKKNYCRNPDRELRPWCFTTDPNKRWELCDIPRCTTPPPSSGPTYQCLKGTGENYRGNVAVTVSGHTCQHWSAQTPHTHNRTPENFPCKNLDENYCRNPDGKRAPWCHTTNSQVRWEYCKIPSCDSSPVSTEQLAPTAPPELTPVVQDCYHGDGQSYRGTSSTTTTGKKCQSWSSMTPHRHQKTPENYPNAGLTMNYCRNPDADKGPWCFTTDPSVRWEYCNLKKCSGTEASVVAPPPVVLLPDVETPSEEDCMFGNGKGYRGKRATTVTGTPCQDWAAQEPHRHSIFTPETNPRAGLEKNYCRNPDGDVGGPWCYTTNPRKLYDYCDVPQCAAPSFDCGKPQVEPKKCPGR
# measurement-description: Inhibition of human plasmin, fluorogenic substrate Mes-DArg-Phe-Arg-AMC
# Type: biochemical
# recorded-conditions: K i (nM), inhibition of plasmin, series two, substituted Bpa in P1', and acyclic analogues; steady-state velocities, equation 1
# Experimental: All inhibitors prepared in this study act as reversible competitive plasmin inhibitors, their K i values were calculated by fitting the steady‐state velocities as function of the inhibitor concentrations using equation 1. […] For these inhibitors the steady‐state velocities were calculated by fitting the progress curves to equation 2 providing an additional apparent first‐order rate constant k obs for each curve. […]
outcome-measure: log10(Ki) (log10 of the value in nM)
Values below are the log10 of the recorded Ki, with nM as the unit.

Record excerpt, results attached:
>  <compound>
Cc1ccc2cc1NC(=O)CNC(=O)CCCCNC(=O)Cc1ccc(cc1)NC(=O)[C@@H](NC(=O)[C@H]1CC[C@H](CN)CC1)Cc1ccc-2cc1 [inhibitor 29]

>  <target-or-system>
human plasmin (Homo sapiens, UniProt P00747)

>  <log10(Ki)>
1.80

$$$$
>  <compound>
NC[C@H]1CC[C@H](C(=O)N[C@H]2Cc3ccc(cc3)-c3ccc(C(=O)Nc4ccccc4)c(c3)NC(=O)CNC(=O)CCCNC(=O)Cc3ccc(cc3)NC2=O)CC1 [inhibitor 32]

>  <target-or-system>
human plasmin (Homo sapiens, UniProt P00747)

>  <log10(Ki)>
0.16

$$$$
>  <compound>
Cc1ccc2cc1NC(=O)CNC(=O)CCCCNC(=O)Cc1cccc(c1)NC(=O)[C@@H](NC(=O)[C@H]1CC[C@H](CN)CC1)Cc1ccc-2cc1 [inhibitor 39]

>  <target-or-system>
human plasmin (Homo sapiens, UniProt P00747)

>  <log10(Ki)>
1.43

$$$$
>  <compound>
Cc1ccc2cc1NC(=O)C(Cc1ccccc1)NC(=O)CCCNC(=O)Cc1ccc(cc1)NC(=O)C(NC(=O)C1CCC(CN)CC1)Cc1ccc-2cc1 (stereo not drawn) [inhibitor 30]

>  <target-or-system>
human plasmin (Homo sapiens, UniProt P00747)

>  <log10(Ki)>
0.32

$$$$
>  <compound>
Cc1ccc2cc1NC(=O)CNC(=O)CCNC(=O)Cc1ccc(cc1)NC(=O)[C@@H](NC(=O)[C@H]1CC[C@H](CN)CC1)Cc1ccc-2cc1 [inhibitor 25]

>  <target-or-system>
human plasmin (Homo sapiens, UniProt P00747)

>  <log10(Ki)>
1.53

$$$$

Please turn your attention to the following entry.
Entry Cc1ccc2cc1NC(=O)CNC(=O)CCCNC(=O)Cc1cccc(c1)CNC(=O)[C@@H](NC(=O)[C@H]1CC[C@H](CN)CC1)Cc1ccc-2cc1 [inhibitor 42] : log10(Ki) on human plasmin (Homo sapiens, UniProt P00747) = 2.45
